Tested on: MS2 coat protein
assay_overview: apparent KD of MS2 coat protein; designed switch direction (-1 OFF switch, 1 ON switch): 1; higher = weaker reporter binding
condition_parameters: Eterna round: R95; input ligand: microRNA oligo, concentration not stated
Recorded apparent KD of MS2 coat protein by entry
Record the result as a number with its unit.

INSERT INTO assay_data (sequence_entry, value_measured) VALUES
  ('UCUAGACAUGAGGAUCACCCAUGUCAAUAUGACACAGGAUAUCGGUACUCAUAGAGUACGCGAGAAGGGUGACUUC [Same State 1 - Mod of Vinnie Gere v.4] (puzzle: Same State 1)', '45.5 nM');

Here is the next item to consider.
Enquiry: Note down apparent KD of MS2 coat protein recorded for UCUUGGUUUUUGCUCGUUUUUUGUGUUGAACAUGAGGAUCACCCAUGUAUUGUACGGUCCAAUUUGGUAAUGGUCCG [JMF 29] (puzzle: Sensor for hsa-mir-208a)
Return: 15.6 nM
